B1: library; a variant is named by its letters at N, in order (parent)
chain: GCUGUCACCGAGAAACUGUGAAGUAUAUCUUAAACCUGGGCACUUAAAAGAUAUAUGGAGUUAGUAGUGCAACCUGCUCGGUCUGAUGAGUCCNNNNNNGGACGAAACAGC

Variants of: B1
Assay: normalized RNA/DNA level with ligand (relative to sTRSVctl = 100) (log10 (% of sTRSVctl)); HEK293T; ligand: cyclic di-GMP (c-di-GMP-II aptamer); ligand concentration (+) RNA-Seq: 1 mM; higher = less ribozyme self-cleavage, higher mRNA level
Settings: reporter: mCherry (pCS4076), ligand present: yes
readout.kind: normalized RNA/DNA level with ligand (log10)

UCUUGC 1.88
CCGCCU 1.84
CGGAGA 1.55
AAUCUG 1.8
UGGGGC 1.91

Could you tell me which normalized RNA/DNA level with ligand (log10) is on file for `GAGCCG` ?
1.9

Recorded normalized RNA/DNA level with ligand (log10) for `CUAGAC` , please?
1.81

What normalized RNA/DNA level with ligand (log10) value was documented for this variant, `GCUCAG` ?
1.87

I'd like to know its normalized RNA/DNA level with ligand (log10). The variant in question is `AAAUUC`
1.85

So what does the record say about normalized RNA/DNA level with ligand (log10) for `UCAACC` ?
1.9

Any idea what its normalized RNA/DNA level with ligand (log10) is? The variant is `GUGUUG`
1.74
